Tested on: OCI-LY10
Assay: CTG Cell Viability Assay - OCI-LY10
Type: cell-based, human
Conditions: Homo sapiens, OCI-Ly10, 96 h, OCI-LY10, 4 days; read-out: CTG Cell Viability Assay - OCI-LY10: Average external-IC50
pIC50: −log10 of the molar value.
MEASURED ATTRIBUTE: pIC50

Use these answered entries as a reference point.
COMPOUND: Cn1c(=O)n(C2CCC(=O)NC2=O)c2cccc(CCCOCC(F)CNC(=O)c3cnc(-n4ncc5cc(C#N)cnc54)cc3NC3CC3)c21 (centres unmarked)
RESULT: < 6.00

COMPOUND: Cn1c(=O)n(C2CCC(=O)NC2=O)c2cccc(CCCOC3CCN(CCCCn4ncc(NC(=O)c5cnn6ccc(N7CCOCC7)nc56)c4C(F)F)CC3)c21 (centres unmarked)
RESULT: < 6.00

COMPOUND: CN(C[C@@H]1CN(Cc2cccc3c2n(C)c(=O)n3C2CCC(=O)NC2=O)CCO1)C[C@H]1CC[C@H](n2cc(NC(=O)c3cnn4ccc(N5C[C@H]6C[C@@H]5CO6)nc34)c(C(F)F)n2)CC1 (some centres unmarked)
RESULT: < 6.00

COMPOUND: CN(CCCOC1CCN(C[C@H]2CC[C@H](n3cc(NC(=O)c4cnn5ccc(N6CCOCC6)nc45)c(C(F)F)n3)CC2)CC1)c1cccc2c1C(=O)N(C1CCC(=O)NC1=O)C2=O (some centres unmarked)
RESULT: < 6.00

Please examine the following record next.
In: Hi! What's the reported pIC50 for O=C1CCC(N2Cc3c(OCc4ccc(CN5CCN(C[C@H]6CC[C@H](n7cc(NC(=O)c8cnn9ccc(N%10CCOCC%10)nc89)c(C(F)F)n7)CC6)CC5)cc4)cccc3C2=O)C(=O)N1 (some centres unmarked) on OCI-LY10?
Out: > 7.30
